Experiment: recombinant barcode read abundance after kanamycin selection (control-corrected) (log10(CPM+1)); higher = more efficient recombination; sequences stand for … in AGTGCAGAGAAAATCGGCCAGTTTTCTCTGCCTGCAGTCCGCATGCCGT…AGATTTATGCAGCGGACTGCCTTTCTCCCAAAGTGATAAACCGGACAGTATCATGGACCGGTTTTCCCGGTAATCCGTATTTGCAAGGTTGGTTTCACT; site = the 11-nt target
Output true (1) for recombinant barcode read abundance (log10) not less than 0.2; output false (0) otherwise.

Illustrative cases are given below, each with its answer.
CGAAGATCTTGGGTTCTAACCTGTTGCCT (site CTAAGATCTAG)	false (0)
CTTGGAACTTGGGTTCTAACCTGTTGCCT (site CTTGGATCTAG)	true (1)
AGGAAGACTTGGGTTCTAACCTGTTGCGG (site AGGAAGACTCG)	true (1)
AGCGAGTCTTGGGTTCTAACCTGTTGCCT (site AACGAGTCTAG)	true (1)
CGGTGAACTTGGGTTCTAACCTGTTGCCT (site CAGTGAACTAG)	false (0)

Hi team, for GGGCACTCTTGGGTTCTAACCTGTTGCTT (site GGGCACTCTAG) , is the recorded recombinant barcode read abundance (log10) at or above 0.2? true (1)

Try GTTCAACCTTGGGTTCTAACCTGTTGCCT (site GCTCAACCTAG) next. false (0)

Try AGCATCCCTTGGGTTCTAACCTGTTGCTG (site CATGCGACTAC) next. true (1)

Try GATTGGACTTGGGTTCTAACCTGTTGCTT (site CATTGGACTAA) next. true (1)

Try AGGAGAGCTTGGGTTCTAACCTGTTGCTT (site AGGAGAGCTAA) next. true (1)

----------
Experiment: recombinant UMI read abundance after kanamycin selection (control-corrected) (log10(CPM+1)); higher = more efficient recombination; extreme values may be limits of the assay; sequences stand for … in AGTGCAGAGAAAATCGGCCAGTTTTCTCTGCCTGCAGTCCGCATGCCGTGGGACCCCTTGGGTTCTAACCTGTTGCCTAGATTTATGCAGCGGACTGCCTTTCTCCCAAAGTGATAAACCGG…AGGTTGGTTTCACT; site = the 11-nt donor
Catalogue of recombinant UMI read abundance (log10) readings, one per entry.
Provide a numeric answer; units are not to be included.

Some solved cases for reference:
CAGGAACCATGGACCGGTTTTCCCGGTAATCCGTATTTGAT (site CTGGAACCTAT)	0
TCCATATCATGGACCGGTTTTCCCGGTAATCCGTATTTGTC (site GCCATATCTGA)	0
TGCCTTTCATGGACCGGTTTTCCCGGTAATCCGTATTTGAC (site CGCCTTTCTGT)	0
GGATAGACATGGACCGGTTTTCCCGGTAATCCGTATTTGCC (site AGATAGACTGG)	2.1

For the sequence GGAGGCCCATGGACCGGTTTTCCCGGTAATCCGTATTTGCC (site GGAGGCCCTGG) , what recombinant UMI read abundance (log10) is on record? 0

Try AATTATGCATGGACCGGTTTTCCCGGTAATCCGTATTTGTA (site AATTATGCTTT) next. 0.0175

Try ACAGAATCATGGACCGGTTTTCCCGGTAATCCGTATTTGCA (site ACAGGATCTTG) next. 2.45

Try TAGCAATCATGGACCGGTTTTCCCGGTAATCCGTATTTGCG (site TAGGAATCTCG) next. 0

Try TACTAGGCATGGACCGGTTTTCCCGGTAATCCGTATTTGGT (site TTCTAGGCTAC) next. 0.00516

Ref: the supplement of paper PMC11208160
